Where do these numbers come from? They come from ChEMBL document CHEMBL3882729.

target: Ephrin type-A receptor 2 (Homo sapiens, UniProt P29317); assay: Inhibition of recombinant human N-terminal His6-tagged EphA2 (N598 to R890 residues) expressed in baculovirus using poly-EY as substrate after 180 mins by luciferase coupled chemiluminescence assay
Sequence (P29317 whole entry, the tested form may be a part): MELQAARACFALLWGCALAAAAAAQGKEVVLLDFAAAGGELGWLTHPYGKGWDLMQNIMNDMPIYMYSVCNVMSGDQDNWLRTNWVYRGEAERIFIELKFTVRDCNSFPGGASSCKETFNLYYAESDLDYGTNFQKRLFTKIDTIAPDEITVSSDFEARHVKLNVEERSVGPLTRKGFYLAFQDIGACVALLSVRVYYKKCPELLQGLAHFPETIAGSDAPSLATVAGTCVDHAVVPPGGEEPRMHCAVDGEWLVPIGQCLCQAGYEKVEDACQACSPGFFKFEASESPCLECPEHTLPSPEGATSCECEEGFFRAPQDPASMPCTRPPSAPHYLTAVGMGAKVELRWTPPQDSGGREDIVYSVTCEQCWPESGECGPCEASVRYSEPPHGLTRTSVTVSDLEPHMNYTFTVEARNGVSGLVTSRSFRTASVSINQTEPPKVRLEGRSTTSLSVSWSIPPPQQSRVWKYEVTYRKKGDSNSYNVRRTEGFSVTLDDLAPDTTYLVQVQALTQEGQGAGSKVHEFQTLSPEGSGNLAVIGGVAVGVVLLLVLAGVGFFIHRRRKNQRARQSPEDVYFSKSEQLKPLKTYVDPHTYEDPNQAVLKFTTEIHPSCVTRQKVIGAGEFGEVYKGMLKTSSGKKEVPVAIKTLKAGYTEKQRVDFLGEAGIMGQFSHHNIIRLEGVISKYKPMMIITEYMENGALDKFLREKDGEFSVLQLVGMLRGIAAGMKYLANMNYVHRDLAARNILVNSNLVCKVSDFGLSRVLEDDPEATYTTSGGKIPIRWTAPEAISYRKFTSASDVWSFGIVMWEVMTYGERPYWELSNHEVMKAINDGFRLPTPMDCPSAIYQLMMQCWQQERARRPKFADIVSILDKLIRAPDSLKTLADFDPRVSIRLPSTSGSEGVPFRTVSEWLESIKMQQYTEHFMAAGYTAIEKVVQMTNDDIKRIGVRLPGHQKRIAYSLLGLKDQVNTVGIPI
Quantity name: IC50

COc1cc2c(Nc3ccc(Cl)c(Cl)c3F)ncnc2cc1OC[C@@H]1CN2CCC[C@H]2CO1 ... < 0.05 µM
CCCCC(CC)C(=O)N1CCOC(COc2cc3ncnc(Nc4ccc(Cl)c(Cl)c4)c3cc2OC)C1 (stereo unspecified) ... 0.05 to 1 µM
CCC(=O)CN1CCOC(COc2cc3ncnc(Nc4ccc(Cl)c(Cl)c4)c3cc2OC)C1 (stereo unspecified) ... 0.05 to 1 µM
CC#CCN1CCOC(COc2cc3ncnc(Nc4ccc(Cl)c(Cl)c4)c3cc2OC)C1 (stereo unspecified) ... 0.05 to 1 µM
COc1cc2c(Nc3cc(Cl)c(Cl)cc3F)ncnc2cc1OC[C@@H]1CN2CCC[C@H]2CO1 ... < 0.05 µM
COc1cc2c(Nc3ccc(C)c(Br)c3)ncnc2cc1OCC1CN(C)CCO1 (stereo unspecified) ... 0.05 to 1 µM

Just so you know, measured IC50 for COc1cc2c(Nc3cc(F)c(Br)cc3F)ncnc2cc1OCC1CN(C)CCO1 (stereo unspecified) came out at 0.05 to 1 µM

Just so you know, measured IC50 for COc1cc2c(Nc3ccc(Cl)c(Cl)c3)ncnc2cc1OCC1CN(CC2CCCCC2)CCO1 (stereo unspecified) came out at 0.05 to 1 µM

Just so you know, measured IC50 for COc1cc2c(Nc3ccc(Cl)cc3F)ncnc2cc1OCC1CN(C)CCO1 (stereo unspecified) came out at 0.05 to 1 µM

Just so you know, measured IC50 for COc1cc2c(Nc3ccc(Br)c(Cl)c3)ncnc2cc1OCC1CN(C)CCO1 (stereo unspecified) came out at < 0.05 µM

Just so you know, measured IC50 for `CCN(CC)[C@H]1CO[C@H]2[C@@H]1OC[C@@H]2Oc1cc2ncnc(Nc3ccc(Br)c(Cl)c3)c2cc1OC` came out at 1 to 20 µM

----------
biological target: Ephrin type-A receptor 2 (Homo sapiens, UniProt P29317); test: Inhibition of recombinant human N-terminal His6-tagged EphA2 (N598 to R890 residues) expressed in baculovirus using poly-EY as substrate after 180 mins by luciferase coupled chemiluminescence assay
Quantity name: IC50

COc1cc2c(Nc3ccc(Cl)c(Cl)c3)ncnc2cc1OC[C@@H]1CN2CCC[C@H]2CO1 ... < 0.05 µM
CCC(=O)N1CCOC(COc2cc3ncnc(Nc4ccc(Cl)c(Cl)c4)c3cc2OC)C1 (centres undefined) ... 0.05 to 1 µM
COc1cc2c(Nc3ccc(Cl)c(Cl)c3)ncnc2cc1OCC1CN(C(=O)C2CCCC2)CCO1 (centres undefined) ... 0.05 to 1 µM
COc1cc2c(Nc3ccc(Br)cc3Br)ncnc2cc1OCC1CN(C)CCO1 (centres undefined) ... 0.05 to 1 µM
COc1cc2c(Nc3ccc(Cl)c(Cl)c3)ncnc2cc1OCC1CN(CCF)CCO1 (centres undefined) ... 0.05 to 1 µM

Just so you know, measured IC50 for COc1cc2c(Nc3cc(Cl)c(Br)cc3F)ncnc2cc1OCC1CN(C)C(C)(C)CO1 (centres undefined) came out at < 0.05 µM
